- TARGET DESC: Free fatty acid receptor 1 (Homo sapiens, UniProt O14842)
- Sequence (O14842 whole entry): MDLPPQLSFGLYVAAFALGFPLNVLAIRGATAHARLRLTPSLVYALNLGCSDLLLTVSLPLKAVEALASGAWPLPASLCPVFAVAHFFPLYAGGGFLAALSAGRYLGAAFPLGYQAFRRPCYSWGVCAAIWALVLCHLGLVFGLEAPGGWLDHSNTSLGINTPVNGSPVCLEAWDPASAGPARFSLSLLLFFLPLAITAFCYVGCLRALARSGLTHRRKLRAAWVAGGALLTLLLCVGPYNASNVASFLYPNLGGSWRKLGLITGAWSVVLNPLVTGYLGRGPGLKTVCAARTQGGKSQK
- MEASUREMENT PROTOCOL: Modulation activity at human GPR40 expressed in HEK293 cells by IP-1 detection based HTRF assay
ENDPOINT NAME: EC50

Input: Data request, read-out EC50, for Cc1ccccc1Oc1ccc(N2N=C(C#N)CC2CC(=O)O)cc1 (stereo unspecified)
Output: 560 nM
